- System: Cryptococcus neoformans ATCC MYA-895 (M)
- Test method notes: MIC determination by in vitro antifungal assay
- Format: cell-based
- Experimental parameters: strain M = C. neoformans ATCC MYA-895
Assay endpoint: MIC (μg/mL^−1)
Field format: number, assumed μg/mL^−1, no unit text.

// MIC value for O=C(NNc1cccc(F)c1)c1ccc(F)cc1F : 1.95

// MIC value for O=C(NNc1ccc(Cl)cc1)c1ccccn1 : 0.49

// MIC value for O=C(NNc1ccc(Cl)cc1)c1ccc(F)cc1F : 1.95

// MIC value for O=C(NNc1ccc(Cl)cc1)c1cccc(F)n1 : 1.95
